This section presents molecules with their documented pEC50 values.
Target: Adenosine receptor A1 (Cavia porcellus, UniProt P47745)
Sequence (P47745 whole entry): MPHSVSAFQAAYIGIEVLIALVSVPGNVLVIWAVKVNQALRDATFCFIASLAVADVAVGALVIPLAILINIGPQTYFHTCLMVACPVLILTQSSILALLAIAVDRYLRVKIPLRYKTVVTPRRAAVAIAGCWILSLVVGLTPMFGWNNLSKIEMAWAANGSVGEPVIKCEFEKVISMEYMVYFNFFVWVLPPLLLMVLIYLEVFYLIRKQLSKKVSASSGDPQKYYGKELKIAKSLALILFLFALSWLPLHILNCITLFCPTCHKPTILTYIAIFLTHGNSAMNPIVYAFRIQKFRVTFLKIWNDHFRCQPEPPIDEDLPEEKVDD
Experiment: Tested for adenosine A1 receptor agonistic activity by determining concentration needed to prolong the stimulus-QRS interval by 50% of the maximum response
Conceptually, pEC50 converts a concentration in mol/L into minus its log10.

Solved cases below.
* Nc1nc(N=NCc2cccc(Cl)c2)nc2c1ncn2C1O[C@H](CO)[C@@H](O)[C@H]1O (some centres not stated) | 4.31
* Nc1nc(N=NCc2ccccc2F)nc2c1ncn2C1O[C@H](CO)[C@@H](O)[C@H]1O (some centres not stated) | 4.38
* Nc1nc(N=NCc2ccccc2)nc2c1ncn2C1O[C@H](CO)[C@@H](O)[C@H]1O (some centres not stated) | 4.08
* Nc1nc(N=NCCc2ccccc2)nc2c1ncn2C1O[C@H](CO)[C@@H](O)[C@H]1O (some centres not stated) | 4.08
* Nc1nc(N=NCc2ccccc2Cl)nc2c1ncn2C1O[C@H](CO)[C@@H](O)[C@H]1O (some centres not stated) | 4.31

Exercise: Which measured pEC50 value corresponds to Nc1nc(N=NCc2cccs2)nc2c1ncn2C1O[C@H](CO)[C@@H](O)[C@H]1O (some centres not stated) ?
Solution: 4.38

Exercise: Do the same for Nc1nc(N=NCc2ccccn2)nc2c1ncn2C1O[C@H](CO)[C@@H](O)[C@H]1O (some centres not stated) please
Solution: 4.38
